The origin of these recorded values is paper PMC8153426.

Target: EfgA (Methylorubrum extorquens, UniProt P0DX96)
Construct: recombinant EfgA with C-terminal 6X-His tag
Sequence (P0DX96 whole entry): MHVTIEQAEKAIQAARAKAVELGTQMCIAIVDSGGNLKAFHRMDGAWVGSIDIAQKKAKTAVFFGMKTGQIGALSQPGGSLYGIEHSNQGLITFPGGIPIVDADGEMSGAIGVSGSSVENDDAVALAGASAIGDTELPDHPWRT
Assay: microscale thermophoresis (Kd), confirmed by mITC
pKd: −log10 of the molar value.
reported-property: pKd

given-smiles: C=O
reported-measurement: 2.10
